Where do the numbers come from? From patent US11667652B2.

system: SKBR3 cells; assay: SKBR3 Cell Viability Assay; format: cell-based; settings: 72 hours, CellTiter Glo, read-out: MCL1 CV SKBR3 EC50
The compounds listed here are annotated with their pEC50.
The value called pEC50 is obtained by taking minus log10 of the concentration in mol/L.

Consider the worked cases shown below.
>  <compound>
COc1nn(C)cc1C(=O)N[S@@]1(=O)=NC(=O)c2ccc3c(c2)N(C[C@@H]2CC[C@H]2/C=C/[C@H]2OCCO[C@@H]2[C@H](C)C1)C[C@@]1(CCCc2cc(Cl)ccc21)CO3

>  <test target>
SKBR3 cells

>  <experimental value>
5.83

$$$$
>  <compound>
COc1nn(C)cc1C(=O)N[S@@]1(=O)=NC(=O)c2ccc3c(c2)N(C[C@@H]2CC[C@H]2[C@](O)(CC(=O)N2CCN4CCOCC4C2)/C=C/C[C@H](C)C1)C[C@@]1(CCCc2cc(Cl)ccc21)CO3 (stereo partly shown)

>  <test target>
SKBR3 cells

>  <experimental value>
7.46

$$$$
>  <compound>
CO[C@H]1/C=C/[C@H](OC)[C@H](C)C[S@@](=O)(NC(=O)c2cn(C)nc2OCCN2CCOCC2)=NC(=O)c2ccc3c(c2)N(C[C@@H]2CC[C@H]21)C[C@@]1(CCCc2cc(Cl)ccc21)CO3

>  <test target>
SKBR3 cells

>  <experimental value>
7.03

$$$$
>  <compound>
COc1nn(C)cc1C(=O)N[S@@]1(=O)=NC(=O)c2ccc3c(c2)N(C[C@@H]2CC[C@H]2[C@@H]2/C=C/[C@H](OCCCC(=O)O2)[C@H](C)C1)C[C@@]1(CCCc2cc(Cl)ccc21)CO3

>  <test target>
SKBR3 cells

>  <experimental value>
6.43

$$$$

Task item: Give pEC50 for `COc1nn(C)cc1C(=O)N[S@@]1(=O)=NC(=O)c2ccc3c(n2)N(C[C@@H]2CC[C@H]2[C@@H](OC)/C=C/[C@H](OC)[C@H](C)C1)C[C@@]1(CCCc2cc(Cl)ccc21)CO3` tested on SKBR3 cells.
Reply: 7.65

Task item: Give pEC50 for `COc1nn(C)cc1C(=O)N[S@@]1(=O)=NC(=O)c2ccc3c(c2)N(C[C@@H]2CC[C@H]2[C@@H](OC)C#C[C@H](OC)[C@H](C)C1)C[C@@]1(CCCc2cc(Cl)ccc21)CO3` tested on SKBR3 cells.
Reply: 6.53

Task item: Give pEC50 for `COc1nn(C)cc1C(=O)N[S@@]1(=O)=NC(=O)c2ccc3c(c2)N(C[C@@H]2CC[C@H]2[C@@H](OC)/C=C/[C@H](OCCN2CCN(C4COC4)CC2)[C@H](C)C1)C[C@@]1(CCCc2cc(Cl)ccc21)CO3` tested on SKBR3 cells.
Reply: 7.37

Task item: Give pEC50 for COc1nn(C)cc1C(=O)N[S@@]1(=O)=NC(=O)c2ccc3c(c2)N(C[C@@H]2CC[C@H]2[C@@](O)(CC(=O)N2CCOCC2)/C=C/C[C@H](C)C1)C[C@@]1(CCCc2cc(Cl)ccc21)CO3 [Example 99] tested on SKBR3 cells.
Reply: 7.85

Task item: Give pEC50 for `COc1nn(C)cc1C(=O)N[S@@]1(=O)=NC(=O)c2ccc3c(c2)N(C[C@@H]2CC[C@H]2[C@@H](OCCCN2CCOCC2)/C=C/C[C@H](C)C1)C[C@@]1(CCCc2cc(Cl)ccc21)CO3` tested on SKBR3 cells.
Reply: 7.66
